# proliferation of naïve CD4+ T cells, mean, at 416.7 ng/mL Ab values compiled below
Molecular target: T1, human GITR on naïve CD4+ T cells (human, UniProt Q9Y5U5 26-241)
T1 sequence: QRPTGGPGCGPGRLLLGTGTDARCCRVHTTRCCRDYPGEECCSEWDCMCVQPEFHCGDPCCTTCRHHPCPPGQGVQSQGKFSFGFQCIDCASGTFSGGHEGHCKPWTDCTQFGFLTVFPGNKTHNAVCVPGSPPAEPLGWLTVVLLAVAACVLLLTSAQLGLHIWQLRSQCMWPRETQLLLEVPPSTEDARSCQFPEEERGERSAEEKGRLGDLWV
Assay: cell-based or functional assay
Respond with the number and no other words.

proliferation of naïve CD4+ T cells, mean, at 416.7 ng/mL Ab reading for 9E5 (antibody, V domains shown, Parental rodent anti-human GITR monoclonal antibody from a hybridoma; kappa VL; also called 9E5.C1) VH: QVTLKESGPGILQPSQTLSLTCTFSGFSLSTYGVGVGWIRQPSGKGLEWLANIWWDDDNYYNPSLIHRLTVSKDTSNNQAFLKITNVDTAETATYYCAQIKEPRDWFFEFWGPGTMVSVSS VL: DIQMTQTPSSMPASLGERVTIFCRASQGVNNFLTWYQQKPDGTIKPLIFYTSNLQSGVPSRFSGSGSGTDYSLSISSLEPEDFAMYYCQQYHGFPNTFGAGTKLELKR : 79700

Data origin: patent US20120189639A1
